Test system: HCC-2998 colon
Assay: NCI-60 one-dose screen, 48 h
Conditions: 10 µM unless noted
About 83,000 compounds went through this panel and 20% of them were active in at least one assay; those are over-represented in the sample as a whole. Active and inactive are the calls of the source. Rule for the calls: active = growth percent below 10; inactive = the rest.
// classify into active, inactive

These recorded examples may help you get a feel for the data.
- CCN(CC)C(=O)CCCCCn1c2ccccc2c2c3c(c4c5ccccc5[nH]c4c21)C(=O)N(O)C3=O: inactive
- CC[C@H](CC[C@@H](C)[C@H]1CC[C@H]2[C@@H]3/C(=C/c4cccnc4)C(=O)C4=CC(=O)CC[C@]4(C)[C@H]3CC[C@]12C)C(C)C: inactive
- COC(=O)[C@]12CC[C@@H](C)[C@H](C)[C@@H]1C1=CC[C@@H]3[C@@]4(C)C[C@@H](OC(C)=O)[C@H](O)[C@@](C)(COC(C)=O)[C@@H]4[C@H](O)C[C@@]3(C)[C@]1(C)CC2: active
- Cc1ccc(Nc2c(C(N)=O)cnc3ccc(S(=O)(=O)Nc4cc(C)on4)cc23)cc1: inactive
- Cn1cc(-c2csc(-c3cn(CCN)c4ccc(Br)cc34)n2)c2cccnc21: inactive

Could you kindly confirm the outcome this assay logged for CCCC(=O)N1CCCCC1CC (stereo unspecified) ?
inactive

Which outcome was entered for the compound Cc1cc(C)c(NC(=O)c2sc3nc4c(cc3c2N)CCCC4)c(C)c1 in this test?
inactive

Hi team, can someone confirm the assay call for O=C(O)c1cccc2c1Cc1cc([N+](=O)[O-])ccc1-2 ?
inactive
